Conditions: in water, 288.15 K
Metric name: solubility (mole fraction)
One number for each entry.

Example compounds with recorded solubility (mole fraction):
Compound: NCCC(=O)N[C@@H](Cc1cnc[nH]1)C(=O)O
solubility (mole fraction): 0.0217

Compound: CSCC[C@H](N)C(=O)O
solubility (mole fraction): 0.00555

Compound: N[C@@H](Cc1cnc[nH]1)C(=O)O
solubility (mole fraction): 0.00384

Compound: Cc1ncc(CO)c(CO)c1O.Cl
solubility (mole fraction): 0.014

Compound: C[C@@H](O)[C@H]1C(=O)N2C(C(=O)[O-])=C(SC3Cn4cnc[n+]4C3)[C@H](C)[C@H]12 (some centres not stated)
solubility (mole fraction): 0.000367

Compound: C[C@@H](O)[C@H]1C(=O)N2C(C(=O)O)=C(S[C@@H]3CN[C@H](C(=O)N(C)C)C3)[C@H](C)[C@H]12.O.O.O
solubility (mole fraction): 0.00051

Query: Find the recorded solubility (mole fraction) belonging to "Oc1cc(O)c2cc1Cc1cc(c(O)cc1O)Cc1cc(c(O)cc1O)Cc1cc(c(O)cc1O)C2" and report it.
Result: 4.86e-06

----------
Conditions: in isopropanol, 313.2 K
Metric name: solubility (mole fraction)
Answers are plain numbers.

Query: Find the recorded solubility (mole fraction) belonging to CC(=O)N1CCN(c2ccc(OC[C@@H]3CO[C@@](Cn4ccnc4)(c4ccc(Cl)cc4Cl)O3)cc2)CC1 (racemic) and report it.
Result: 0.00237

----------
Settings: in n-hexane, 293.15 K
Metric name: solubility (mole fraction)
Give bare numbers.

Query: Find the recorded solubility (mole fraction) belonging to "CC1=C(/C=C/C(C)=C/C=C/C(C)=C/C=C/C=C(C)/C=C/C=C(C)/C=C/C2=C(C)CCCC2(C)C)C(C)(C)CCC1" and report it.
Result: 8.9e-05

----------
Settings: in water, 308.15 K
Metric name: solubility (mole fraction)
Numbers only.

Respectfully, I request solubility (mole fraction) for each entry included below.
1. O=C(O)[C@@H]1C[C@@H](O)CN1
2. Cc1ncc(CO)c(CO)c1O.Cl

Result:
[0.0551, 0.0245]

Respectfully, I request solubility (mole fraction) for each entry included below.
1. O=c1ccc2ccccc2o1
2. C=CC1=C(C(=O)O)N2C(=O)[C@@H](NC(=O)/C(=N\OCC(=O)O)c3csc(N)n3)[C@H]2SC1

Result:
[0.000388, "2.49e-05"]

----------
Conditions: in water, 283.2 K
Metric name: solubility (mole fraction)
One number for each entry.

Query: Find the recorded solubility (mole fraction) belonging to "C=C1CC[C@H](O)C/C1=C/C=C1\CCC[C@]2(C)[C@@H]([C@H](C)CCCC(C)C)CC[C@@H]12" and report it.
Result: 4.38e-07

----------
Conditions: in ethanol, 293.2 K
Metric name: solubility (mole fraction)
Give bare numbers.

Compound: CC(=O)N1CCN(c2ccc(OC[C@@H]3CO[C@@](Cn4ccnc4)(c4ccc(Cl)cc4Cl)O3)cc2)CC1 (racemic)
solubility (mole fraction): 0.00275

Query: Find the recorded solubility (mole fraction) belonging to "Clc1ccc(-c2c3nc(c(-c4ccc(Cl)cc4)c4ccc([nH]4)c(-c4ccc(Cl)cc4)c4nc(c(-c5ccc(Cl)cc5)c5ccc2[nH]5)C=C4)C=C3)cc1" and report it.
Result: 1.27e-06

----------
Conditions: in acetone, 318 K
Metric name: solubility (mole fraction)
One number for each entry.

Query: Find the recorded solubility (mole fraction) belonging to "COc1ccc2c(c1)c(CC(=O)O)c(C)n2C(=O)c1ccc(Cl)cc1" and report it.
Result: 0.0365

----------
Conditions: in ethanol, 308.2 K
Metric name: solubility (mole fraction)
Numbers only.

Query: Find the recorded solubility (mole fraction) belonging to CC(=O)N1CCN(c2ccc(OC[C@@H]3CO[C@@](Cn4ccnc4)(c4ccc(Cl)cc4Cl)O3)cc2)CC1 (racemic) and report it.
Result: 0.00561

----------
Settings: in acetonitrile, 298.2 K
Metric name: solubility (mole fraction)
Give bare numbers.

Query: Find the recorded solubility (mole fraction) belonging to "O=C(O)c1ccc(-n2nc(-c3ccccc3O)nc2-c2ccccc2O)cc1" and report it.
Result: 0.00106

----------
Conditions: in ethanol, 303.5 K
Metric name: solubility (mole fraction)
Answers are plain numbers.

Query: Find the recorded solubility (mole fraction) belonging to "c1ccc(P(c2ccccc2)c2ccccc2)cc1" and report it.
Result: 0.009

----------
Details: in ethylene glycol, 308.15 K
Metric name: solubility (mole fraction)
Answers are plain numbers.

Query: Find the recorded solubility (mole fraction) belonging to "COc1cc(/C=C/C(=O)O)cc(OC)c1O" and report it.
Result: 0.0075

----------
Settings: in water, 293 K
Metric name: solubility (mole fraction)
One number for each entry.

Query: Find the recorded solubility (mole fraction) belonging to "C1CN2CN3CCN(CN1C3)C2" and report it.
Result: 0.109

----------
Conditions: in water, 333.15 K
Field: solubility (mole fraction). Provide a value for each of the compounds that follow.

Example compounds with recorded solubility (mole fraction):
Compound: Cc1nc2n(c(=O)c1CCN1CCC(c3noc4cc(F)ccc34)CC1)CCCC2
solubility (mole fraction): 6e-07

Compound: O=C1N2CN3C(=O)N4CN5C(=O)N6CN7C(=O)N8CN9C(=O)N%10CN%11C(=O)N%12CN1C1C2N2CN%13C(=O)N(CN%14C(=O)N(CN%15C(=O)N(CN%16C(=O)N(CN%17C(=O)N(CN1C2=O)C%12C%11%17)C%10C9%16)C8C7%15)C6C5%14)C4C3%13 (centres undefined)
solubility (mole fraction): 0.00481

Compound: Nc1ccc(Cl)nn1
solubility (mole fraction): 0.000936

Now consider the entry below.
Query: Find the recorded solubility (mole fraction) belonging to "C=CC1=C(C(=O)O)N2C(=O)[C@@H](NC(=O)/C(=N\OCC(=O)O)c3csc(N)n3)[C@H]2SC1" and report it.
Result: 7.01e-05

----------
Details: in 1-chlorooctane, 298.15 K
Metric name: solubility (mole fraction)
One number for each entry.

Query: Find the recorded solubility (mole fraction) belonging to "c1ccc2c(c1)[nH]c1ccccc12" and report it.
Result: 0.00242

----------
Details: in 2-butanone, 293.15 K
Metric name: solubility (mole fraction)
Numbers only.

Query: Find the recorded solubility (mole fraction) belonging to "CC1=C(/C=C/C(C)=C/C=C/C(C)=C/C=C/C=C(C)/C=C/C=C(C)/C=C/C2=C(C)CCCC2(C)C)C(C)(C)CCC1" and report it.
Result: 9.1e-05

----------
Conditions: in PEG-300, 298.15 K
Metric name: solubility (mole fraction)
Numbers only.

Query: Find the recorded solubility (mole fraction) belonging to "O=C(O)c1ccccc1O" and report it.
Result: 0.493

----------
Details: in water, 298.15 K
Metric name: solubility (mole fraction)
Numbers only.

Example compounds with recorded solubility (mole fraction):
Compound: C(=N\Nc1ccccc1)/c1cccs1
Reading: 5.19e-07
//
Compound: O=[N+]([O-])c1ccc(N/N=C/c2ccco2)cc1
Reading: 1.72e-07
//
Compound: CC1(C)S[C@@H]2[C@H](N)C(=O)N2[C@H]1C(=O)O
Reading: 0.000203
//
Compound: Cc1cnc(NC(=O)C2=C(O)c3ccccc3S(=O)(=O)N2C)s1
Reading: 4.23e-06
//
Compound: O=c1cc[nH]c(=O)[nH]1
Reading: 0.000743
//
Compound: NCCC(=O)N[C@@H](Cc1cnc[nH]1)C(=O)O
Reading: 0.0236
//
Compound: Oc1cc(O)c2cc1Cc1cc(c(O)cc1O)Cc1cc(c(O)cc1O)Cc1cc(c(O)cc1O)C2
Reading: 6.59e-06
//
Compound: O=[N+]([O-])c1ccc(N/N=C/c2ccc[nH]2)c([N+](=O)[O-])c1
Reading: 1.6e-08
//
Compound: CN1C(C(=O)Nc2ccccn2)=C(O)c2sc(Cl)cc2S1(=O)=O
Reading: 3e-06
//
Compound: C[C@@H](O)[C@H]1C(=O)N2C(C(=O)[O-])=C(SC3Cn4cnc[n+]4C3)[C@H](C)[C@H]12 (stereo partly specified)
Reading: 0.000463

Now consider the entry below.
Query: Find the recorded solubility (mole fraction) belonging to "C=CC1=C(C(=O)O)N2C(=O)[C@@H](NC(=O)/C(=N\OCC(=O)O)c3csc(N)n3)[C@H]2SC1" and report it.
Result: 1.65e-05

----------
Details: in acetone, 298.15 K
Field: solubility (mole fraction). Provide a value for each of the molecules that follow.
One number for each entry.

Example molecules with recorded solubility (mole fraction):
Input smiles: c1ccc(-c2cnc(-c3ccccc3)o2)cc1
Reading: 0.29
--
Input smiles: c1ccc(-c2cnc(-c3ccc(-c4ncc(-c5ccccc5)o4)cc3)o2)cc1
Reading: 0.00013
--
Input smiles: F[P-](F)(F)(F)(F)F.F[P-](F)(F)(F)(F)F.c1cc[n+](CCCCCC[n+]2ccccc2)cc1
Reading: 0.00409
--
Input smiles: CCCN1CCCC[C@H]1C(=O)Nc1c(C)cccc1C
Reading: 0.0148

Now consider the entry below.
Query: Find the recorded solubility (mole fraction) belonging to "CC(C)(C)C(=O)OCOP(=O)(COCCn1cnc2c(N)ncnc21)OCOC(=O)C(C)(C)C" and report it.
Result: 0.0662
